# Experimental target: Transient receptor potential cation channel subfamily A member 1 (Rattus norvegicus)
# Measurement protocol: Agonist activity at rat TRPA1 receptor expressed in HEK293 cells assessed as intracellular calcium stimulation relative to isothiocyanate
# Assay type: functional, cell-based
# key: entry, value: Efficacy
Assay readout: Efficacy

Cc1ccc(OC(=O)N[C@@H]2C[C@H](C)CC[C@H]2C(C)C)cc1    73.9%
COc1cc(CNC(=O)N[C@@H]2C[C@H](C)CC[C@H]2C(C)C)ccc1O    < 10%
COc1ccc(C(=O)N[C@@H]2C[C@H](C)CC[C@H]2C(C)C)cc1    < 10%

----------
# Experimental target: UniProt:Q6RI86
# Sequence (Q6RI86 whole entry): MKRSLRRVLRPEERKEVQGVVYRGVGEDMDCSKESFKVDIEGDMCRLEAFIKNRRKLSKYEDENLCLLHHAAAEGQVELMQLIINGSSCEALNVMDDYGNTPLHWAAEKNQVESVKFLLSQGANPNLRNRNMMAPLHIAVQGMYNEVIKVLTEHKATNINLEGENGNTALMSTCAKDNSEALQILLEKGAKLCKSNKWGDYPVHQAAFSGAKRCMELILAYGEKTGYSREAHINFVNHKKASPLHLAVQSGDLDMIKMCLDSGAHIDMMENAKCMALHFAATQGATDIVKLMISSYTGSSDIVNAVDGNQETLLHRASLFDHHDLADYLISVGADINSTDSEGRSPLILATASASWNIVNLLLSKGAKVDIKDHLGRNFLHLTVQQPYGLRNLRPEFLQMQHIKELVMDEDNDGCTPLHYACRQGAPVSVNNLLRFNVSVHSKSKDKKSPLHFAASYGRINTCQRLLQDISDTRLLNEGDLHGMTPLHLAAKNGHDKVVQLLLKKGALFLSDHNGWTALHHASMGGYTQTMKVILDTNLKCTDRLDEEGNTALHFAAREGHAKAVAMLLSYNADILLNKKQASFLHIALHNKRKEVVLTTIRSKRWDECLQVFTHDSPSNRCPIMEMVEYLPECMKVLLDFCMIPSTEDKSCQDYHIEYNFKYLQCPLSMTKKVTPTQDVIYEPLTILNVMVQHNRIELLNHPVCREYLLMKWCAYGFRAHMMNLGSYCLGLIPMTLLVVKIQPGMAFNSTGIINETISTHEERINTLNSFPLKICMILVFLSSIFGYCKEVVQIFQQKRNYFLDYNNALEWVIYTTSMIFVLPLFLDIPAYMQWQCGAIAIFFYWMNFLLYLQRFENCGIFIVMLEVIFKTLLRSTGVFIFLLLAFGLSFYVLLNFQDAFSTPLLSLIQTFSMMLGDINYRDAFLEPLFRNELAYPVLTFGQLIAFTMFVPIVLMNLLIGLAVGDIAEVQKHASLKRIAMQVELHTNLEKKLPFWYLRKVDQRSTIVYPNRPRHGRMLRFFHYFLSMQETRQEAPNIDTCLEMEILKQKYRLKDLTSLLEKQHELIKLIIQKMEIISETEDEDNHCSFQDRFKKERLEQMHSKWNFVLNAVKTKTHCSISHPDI
# Measurement protocol: Agonist activity at rat TRPA1 receptor expressed in HEK293 cells assessed as intracellular calcium stimulation relative to isothiocyanate
# Format: functional, cell-based
# key: entry, value: Efficacy
Assay readout: Efficacy (%)

CC(C)[C@@H]1CC[C@@H](C)C[C@H]1NC(=O)Oc1cccc(Cl)c1    309
CC(C)[C@@H]1CC[C@@H](C)C[C@H]1NC(=O)CCCCCCCc1ccccc1    67
CC(C)[C@@H]1CC[C@@H](C)C[C@H]1NC(=O)c1ccc(Cl)cc1    223
CC(C)[C@@H]1CC[C@@H](C)C[C@H]1NC(=O)Oc1cccc(-c2ccccc2)c1    282
CC(C)[C@@H]1CC[C@@H](C)C[C@H]1NC(=O)Oc1ccc(C(C)(C)C)cc1    76
CC(C)[C@@H]1CC[C@@H](C)C[C@H]1NC(=O)Oc1ccc(Cl)cc1    181
CC(C)[C@@H]1CC[C@@H](C)C[C@H]1NC(=O)Oc1cccc(C(F)(F)F)c1    220

Recorded values, source ChEMBL document CHEMBL1158538.
